Test target: T1, cynomolgus monkey PVRIG on FlpinCHO-cyno PVRIG cells (cynomolgus monkey, UniProt A0A2K5WVV8 41-322)
T1 construct: whole, on cells
T1 sequence: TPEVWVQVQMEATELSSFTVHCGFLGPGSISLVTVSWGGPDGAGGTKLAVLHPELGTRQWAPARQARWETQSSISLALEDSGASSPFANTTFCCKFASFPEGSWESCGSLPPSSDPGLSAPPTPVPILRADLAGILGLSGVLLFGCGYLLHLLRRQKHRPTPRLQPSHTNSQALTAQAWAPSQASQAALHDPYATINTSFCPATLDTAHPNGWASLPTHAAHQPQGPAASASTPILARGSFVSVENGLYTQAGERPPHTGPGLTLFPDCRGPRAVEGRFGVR
Method: FACS, FlpinCHO-cyno PVRIG cells
Metric: AUC % to parental Ab (%)
Answers are plain numbers, in %.

Worked set:
Binder: PVRIG-A118-H2 (Fc fusion, humanized variant of PVRIG-A118; also called A118.VH2; not shown: constant part not restated for the humanized forms; parents are VHH-hinge-CH2-CH3 of human IgG1; detected by anti-human) EVQLVESGGGLVQPGGSLRLSCAASETYFDLYVMGWYRQAPGKDRELVATITYTGSIKYVDSVKGRFTISRDNAKNSLYLQMNSLRAEDTAVYYCNADPSGLGRKVYWGQGTMVTVSS
Value units: %
Endpoint result: 23.4
--
Binder: PVRIG-A50-H1c (Fc fusion, humanized variant of PVRIG-A50; also called A50.VH1c; not shown: constant part not restated for the humanized forms; parents are VHH-hinge-CH2-CH3 of human IgG1; detected by anti-human) EVQLVESGGGLVQPGGSLRLSCAASGFTFSYYDMSWVRQAPGKGLEWVSTINSDGGRTSYVDSVKGRFTISRDNSKNTLYLQMNSLRAEDTAVYYCVEGDPHNFGLENLALRDFGSWGQGTMVTVSS
Value units: %
Endpoint result: 82.5
--
Binder: PVRIG-A118-H5 (Fc fusion, humanized variant of PVRIG-A118; also called A118.VH5; not shown: constant part not restated for the humanized forms; parents are VHH-hinge-CH2-CH3 of human IgG1; detected by anti-human) EVQLVESGGGLVQPGGSLRLSCAASETYFDLYVMGWYRQAPGKDRELVATITYTGSIKYVDSVKGRFTISRGDAKNSVYLQMNSLRAEDTAVYYCNADPSGLGRKVYWGQGTMVTVSS
Value units: %
Endpoint result: 35
--
Binder: PVRIG-A118-H4 (Fc fusion, humanized variant of PVRIG-A118; also called A118.VH4; not shown: constant part not restated for the humanized forms; parents are VHH-hinge-CH2-CH3 of human IgG1; detected by anti-human) EVQLVESGGGLVQPGGSLRLSCAASETYFDLYVMGWYRQAPGKDRELVATITYTGSIKYVDSVKGRFTISRGDAKNSLSLQMNSLRAEDTAVYYCNADPSGLGRKVYWGQGTMVTVSS
Value units: %
Endpoint result: 34.2
--
Binder: PVRIG-A50-H1 (Fc fusion, humanized variant of PVRIG-A50; also called A50.VH1; not shown: constant part not restated for the humanized forms; parents are VHH-hinge-CH2-CH3 of human IgG1; detected by anti-human) EVQLVESGGGLVQPGGSLRLSCAASGFTFSYYDMSWVRQAPGKGLEWVSTINSNGGRTSYVDSVKGRFTISRDNSKNTLYLQMNSLRAEDTAVYYCVEGDPHNFGLENLSLRDFGSWGQGTMVTVSS
Value units: %
Endpoint result: 96

Below are some binders; for each one, tell me its AUC % to parental Ab.
1. PVRIG-A50-H1d (Fc fusion, humanized variant of PVRIG-A50; also called A50.VH1d; not shown: constant part not restated for the humanized forms; parents are VHH-hinge-CH2-CH3 of human IgG1; detected by anti-human) EVQLVESGGGLVQPGGSLRLSCAASGFTFSYYDMSWVRQAPGKGLEWVSTINSNGGRTSYVDSVKGRFTISRDNSKNTLYLQMNSLRAEDTAVYYCVEGDPHNFGLESLSLRDFGSWGQGTMVTVSS
2. PVRIG-A118-H7 (Fc fusion, humanized variant of PVRIG-A118; also called A118.VH7; not shown: constant part not restated for the humanized forms; parents are VHH-hinge-CH2-CH3 of human IgG1; detected by anti-human) EVQLVESGGGLVQPGGSLRLSCAASETYFDLYVMGWYRQAPGKDRELVATITYTGSIKYVDSVKGRFTISRGDAKNSLYLQMNSLRAEDTAVYFCNADPSGLGRKVYWGQGTMVTVSS
3. PVRIG-A118-H3 (Fc fusion, humanized variant of PVRIG-A118; also called A118.VH3; not shown: constant part not restated for the humanized forms; parents are VHH-hinge-CH2-CH3 of human IgG1; detected by anti-human) EVQLVESGGGLVQPGGSLRLSCAASETYFDLYVMGWYRQAPGKDRELVATITYTGSIKYVDSVKGRFTISRGDAKNSLYLQMNSLRAEDTAVYYCNADPSGLGRKVYWGQGTMVTVSS

103
31.6
33.6
